Assay: Inhibitory activity against Entamoeba histolytica pyrophosphate-dependent phosphofructokinase (PFK) (Range is 900-1000)
Type: functional
property-name: pIC50
Convention used: pIC50 is expressed as -log10 of the molar concentration.

Input `O=P(O)(O)C(O)(Cc1ccccc1)P(=O)(O)O` , output reported pIC50.
3.00

---

Test: Inhibitory activity against Entamoeba histolytica pyrophosphate-dependent phosphofructokinase (PFK)
Type: functional
# if measured IC50 < 90 µM: y  # else: n

Does CCCCCCC(CCCC)C(O)(P(=O)(O)O)P(=O)(O)O (configuration not stated) have IC50 strictly under 90 µM?
n

Hello, is IC50 of the following molecule strictly smaller than 90 µM? `O=P(O)(O)C(O)(Cc1cccnc1)P(=O)(O)O`
n

Consider the molecule `CCCCCCCCCCCC(O)(P(=O)(O)O)P(=O)(O)O` . Is its IC50 strictly less than 90 µM?
y

In the record for `CCCCCCCCCC(O)(P(=O)(O)O)P(=O)(O)O` , is IC50 less than 90 µM?
y

Strictly below 90 µM in IC50? `CCCCCCCCNC(P(=O)(O)O)P(=O)(O)O`
n

I wonder whether `CCCCCCCCCCC(O)(P(=O)(O)O)P(=O)(O)O` has IC50 below 90 µM. Can you tell?
y
